Documented in vitro Activity Compared to Native Peptide (%), vs Glucagon across a set of binders
- target.system: human GCG receptor (human, UniProt P47871 26-477)
- Sequence (P47871 26-477): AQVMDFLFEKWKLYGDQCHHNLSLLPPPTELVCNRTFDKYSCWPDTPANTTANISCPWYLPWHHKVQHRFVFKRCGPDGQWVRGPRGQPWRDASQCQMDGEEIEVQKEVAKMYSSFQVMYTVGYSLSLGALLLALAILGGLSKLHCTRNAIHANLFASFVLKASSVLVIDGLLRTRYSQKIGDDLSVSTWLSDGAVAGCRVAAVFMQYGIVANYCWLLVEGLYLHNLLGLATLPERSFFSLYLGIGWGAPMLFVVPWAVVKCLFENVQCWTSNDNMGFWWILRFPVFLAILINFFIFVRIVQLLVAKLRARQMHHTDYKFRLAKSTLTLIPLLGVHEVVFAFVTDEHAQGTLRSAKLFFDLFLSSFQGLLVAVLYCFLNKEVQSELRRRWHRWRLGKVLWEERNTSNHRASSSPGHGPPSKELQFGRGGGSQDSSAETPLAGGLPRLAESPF
- assay.protocol: cell-based or functional assay
Bridges are numbered along the chain shown (N, C = ends). Where no end group is shown, it is not given here. [ ]: non-standard residue; d: D form. The star is where a group is joined. Acetyl(2-(4-imidazolyl)) = O=C(Cc1c[nH]cn1)*; Aib = CC(C)(N)C(=O)O
metric: in vitro Activity Compared to Native Peptide (%), vs Glucagon

1. [Acetyl(2-(4-imidazolyl))][Aib]QGTFTSDYSIAMDEIHQKDFVNWLLAQKC (bridge 16-20; not fully specified (C-terminus)) [triple agonist of SEQ ID NO: 92] ... < 0.1%
2. [Acetyl(2-(4-imidazolyl))][Aib]QGTFTSDYSICMDEKHQKDFVNWLLNTK (bridge 16-20; not fully specified (C-terminus)) [triple agonist of SEQ ID NO: 59] ... < 0.1%
